Tested on: SF-268 CNS
Test: NCI-60 one-dose screen, 48 h (100 = growth as untreated, 0 = no growth, -100 = all killed)
Conditions: 10 µM unless noted
Compounds without any hit were thinned out: in the full panel of roughly 83,000, 20% have a hit.
Reported growth values for the following compounds.

| compound | u | growth |
| --- | --- | --- |
| Cc1sc2nc(NCc3ccccc3Cl)[nH]c(=O)c2c1C | % | 87.6 |
| C#Cc1nc(C2=C(C)C(O)CC2)cs1 (stereo unspecified) | % | 108 |
| O=C(Nc1nc2ccc(O)cc2s1)c1cccc(C(F)(F)F)c1 | % | 59.4 |
| CCOC(=O)c1c(Nc2ccccc2)nn2c(N)c(C#N)c(-c3ccccc3)nc12 | % | 87.4 |
| CCC/C=C/C=C/C(=O)N[C@@H](Cc1cc(F)cc(F)c1)C(=O)N[C@@H]1C(=O)N2CCC[C@H]2C(=O)N2CCCC[C@H]2C(=O)N[C@@H](C)C(=O)N2C[C@H](C)C[C@H]2C(=O)O[C@H]1C | % | 31.3 |
| COc1ccc(N/N=C/c2c(-c3ccc(S(C)(=O)=O)cc3)nc3ccccn23)cc1 | % | 55.7 |
| CCN1C(=S)N(c2ccccc2)C2NC(=O)N(/N=C/C=C/c3ccccc3OC)C21 (stereo unspecified) | % | 93.9 |
| c1ccc(CNc2ncnc3ccc(-c4cnc5[nH]ncc5c4)cc23)cc1 | % | 58.2 |
| N#Cc1nc(-c2ccccc2)oc1N1CC[C@@H](CO)C1 | % | 105 |
| N#Cc1ccc(C(=O)CSc2nc(Nc3ccc(S(N)(=O)=O)cc3)c3ccccc3n2)cc1 | % | 109 |
| CC(C)(C)Nc1nc2c(OCCc3ccccc3)cccn2c1-c1ccc(O)cc1 | % | 91.3 |
| CS(=O)(=O)c1ccc(-c2nc3ccccn3c2C=Nc2ccc(Cl)cc2)cc1 | % | 75.4 |
| COc1cccc(-c2nn(-c3ccccc3)cc2-c2ccnc(N3CCN(C(=O)c4ccccc4)CC3)c2)c1 | % | 94.2 |
| CC(O)C(NC(=O)C1CCCN1C(=O)CNC(=O)C1CC(=O)NCC(=O)NC(Cc2c[nH]c3ccccc23)C(=O)NC(Cc2ccc(O)cc2)C(=O)NCC(=O)NC(CO)C(=O)NC(CCC(N)=O)C(=O)NC(Cc2c[nH]c3ccccc23)C(=O)N1)C(=O)NCC(=O)NC(CCC(N)=O)C(=O)NC(CCCNC(=N)N)C(=O)NC(CC(=O)O)C(=O)O (stereo unspecified) | % | 103 |
| O=C(N/N=C/c1ccc([N+](=O)[O-])s1)c1[nH]c2ccc(Br)cc2c1-c1ccccc1 | % | 36.4 |
| CCOC(=O)c1csc(NC(=O)CSc2nc3sc4c(c3c(=O)n2-c2ccc(Cl)cc2)CCCC4)n1 | % | 89 |
